- System: HCC-827
- assayProcedure: relative viability (nuclei count vs DMSO), 5 days (fraction); higher = more cells survive
- experimentalConditions: first compound 0.05 µM
measuredProperty: relative viability
Lab note: jot the number down without any unit.

Please report the recorded relative viability for CC1(C)CCC(c2ccc(Cl)cc2)=C(CN2CCN(c3ccc(C(=O)NS(=O)(=O)c4ccc(N[C@H](CCN5CCOCC5)CSc5ccccc5)c(S(=O)(=O)C(F)(F)F)c4)cc3)CC2)C1 [Navitoclax] + COc1cc2c(Oc3ccc(NC(=O)C4(C(=O)Nc5ccc(F)cc5)CC4)cc3F)ccnc2cc1OCCCN1CCOCC1 [Foretinib] (partner 0.25 µM) .
0.832

Please report the recorded relative viability for CC1(C)CCC(c2ccc(Cl)cc2)=C(CN2CCN(c3ccc(C(=O)NS(=O)(=O)c4ccc(N[C@H](CCN5CCOCC5)CSc5ccccc5)c(S(=O)(=O)C(F)(F)F)c4)cc3)CC2)C1 [Navitoclax] + Cc1nc(Nc2ncc(C(=O)Nc3c(C)cccc3Cl)s2)cc(N2CCN(CCO)CC2)n1 [Dasatinib] (partner 0.075 µM) .
0.297

---

- System: NCI-H650
- assayProcedure: relative viability (nuclei count vs DMSO), 5 days (fraction); higher = more cells survive
- experimentalConditions: first compound 0.1581 µM
measuredProperty: relative viability

Please report the recorded relative viability for CC1(C)CCC(c2ccc(Cl)cc2)=C(CN2CCN(c3ccc(C(=O)NS(=O)(=O)c4ccc(N[C@H](CCN5CCOCC5)CSc5ccccc5)c(S(=O)(=O)C(F)(F)F)c4)cc3)CC2)C1 [Navitoclax] + C[C@@H](Oc1cc(-c2cnn(C3CCNCC3)c2)cnc1N)c1c(Cl)ccc(F)c1Cl [Crizotinib] (partner 1 µM) .
0.707

Please report the recorded relative viability for CC1(C)CCC(c2ccc(Cl)cc2)=C(CN2CCN(c3ccc(C(=O)NS(=O)(=O)c4ccc(N[C@H](CCN5CCOCC5)CSc5ccccc5)c(S(=O)(=O)C(F)(F)F)c4)cc3)CC2)C1 [Navitoclax] + Cc1nc(Nc2ncc(C(=O)Nc3c(C)cccc3Cl)s2)cc(N2CCN(CCO)CC2)n1 [Dasatinib] (partner 0.075 µM) .
0.477

Please report the recorded relative viability for CC1(C)CCC(c2ccc(Cl)cc2)=C(CN2CCN(c3ccc(C(=O)NS(=O)(=O)c4ccc(N[C@H](CCN5CCOCC5)CSc5ccccc5)c(S(=O)(=O)C(F)(F)F)c4)cc3)CC2)C1 [Navitoclax] + O=C(c1cc(Cc2n[nH]c(=O)c3ccccc23)ccc1F)N1CCN(C(=O)C2CC2)CC1 [Olaparib] (partner 8 µM) .
0.362

---

I'd be grateful if you could share measured relative viability for these entries.
- Tested on: LCLC-103H
- assayProcedure: relative viability (nuclei count vs DMSO), 5 days (fraction); higher = more cells survive
- experimentalConditions: first compound 0.8 µM
Lab note: jot the number down without any unit.

Please report the recorded relative viability for C=C1C(=O)O[C@@H](CCCCCCCC)[C@@H]1C(=O)O [C-75] + CCNC(=O)c1noc(-c2cc(C(C)C)c(O)cc2O)c1-c1ccc(CN2CCOCC2)cc1 [Luminespib] (partner 0.01 µM) .
0.83

Please report the recorded relative viability for C=C1C(=O)O[C@@H](CCCCCCCC)[C@@H]1C(=O)O [C-75] + O=C(CCCCCCC(=O)Nc1ccccc1)NO [Vorinostat] (partner 1 µM) .
0.708

Please report the recorded relative viability for C=C1C(=O)O[C@@H](CCCCCCCC)[C@@H]1C(=O)O [C-75] + COc1cc2c(Oc3ccc(NC(=O)C4(C(=O)Nc5ccc(F)cc5)CC4)cc3F)ccnc2cc1OCCCN1CCOCC1 [Foretinib] (partner 0.25 µM) .
0.687

Please report the recorded relative viability for C=C1C(=O)O[C@@H](CCCCCCCC)[C@@H]1C(=O)O [C-75] + CC(=O)Nc1cccc(-n2c(=O)n(C3CC3)c(=O)c3c(Nc4ccc(I)cc4F)n(C)c(=O)c(C)c32)c1 [Trametinib] (partner 0.02 µM) .
0.624

Please report the recorded relative viability for Oc1nc(-c2ccc(C(F)(F)F)cc2)nc2c1CSCC2 [XAV939] + CC(=O)c1c(C)c2cnc(Nc3ccc(N4CCNCC4)cn3)nc2n(C2CCCC2)c1=O [Palbociclib] (partner 0.5 µM) .
0.514
